Every entry's value here was drawn from the supplement of paper PMC6757056.

Each entry below lists one item and its recorded normalized RNA/DNA level without ligand (log10) value.
B1: library; a variant is named by its letters at N, in order (parent)
chain: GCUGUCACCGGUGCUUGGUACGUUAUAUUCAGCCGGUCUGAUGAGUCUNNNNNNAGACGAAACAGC

variants of: B1; assay: normalized RNA/DNA level without ligand (relative to sTRSVctl = 100) (log10 (% of sTRSVctl)); HEK293T overexpressing SLC46A1; higher = less ribozyme self-cleavage, higher mRNA level; details: without (6R,S)-folinic acid; ligand present: no
Respond using a number only.

Consider the worked cases shown below.
AUGCCG	1.98
CACGGU	1.95
GGUGUG	1.98

Measured normalized RNA/DNA level without ligand (log10), GUCCAU : 2
